- protocolText: PK satellite group of the in-vivo UGE assay (plasma by LC-MS/MS)
- measurementParameters: male, Sprague Dawley; rat plasma, oral gavage, 10 mg/kg; read-out: Mean PK Parameters (n = 2) tmax
- Experimental: Male Sprague Dawley rats (˜300 g) were singly housed in metabolic cages for urine collection. […] Rats (n=2 to 5/group) received vehicle or compound by oral gavage. […] Glucose concentration was measured in urine by UV absorbance spectrophotometry at 340 nm using a Roche Hitachi 917 spectrophotometer (Diamond Diagnostics, Holliston, Mass.). […] Blood (0.1 mL) was collected from the PK satellite group animals at 1, 2, 4, 7, 24 hours postdose to obtain plasma and analyzed by LC-MS/MS.
Entries and their measured Tmax follow.
Give the number; h is assumed, so skip it.

COc1ccc(Cc2cc([C@]34OC[C@](CO)(O3)[C@@H](O)[C@H](O)[C@H]4O)ccc2C)cc1	1

Could you share which Tmax value was measured for CCOc1ccc(Cc2cc([C@]34OC[C@](CO)(O3)[C@@H](O)[C@H](O)[C@H]4O)ccc2Cl)cc1 ?
2.5

###

Entries and their measured Cmax follow.
- protocolText: PK satellite group of the in-vivo UGE assay (plasma by LC-MS/MS)
- measurementParameters: male, Sprague Dawley; rat plasma, oral gavage, 10 mg/kg
Give the number; ng/mL is assumed, so skip it.

COc1ccc(Cc2cc([C@]34OC[C@](CO)(O3)[C@@H](O)[C@H](O)[C@H]4O)ccc2C)cc1	1260

Now, please, on to the next compound.
Could you share which Cmax value was measured for CCOc1ccc(Cc2cc([C@]34OC[C@](CO)(O3)[C@@H](O)[C@H](O)[C@H]4O)ccc2Cl)cc1 ?
3100

###

- protocolText: Pharmacokinetic testing in rats (IV or PO)
- Format: in vivo
- measurementParameters: male, Sprague Dawley, plasma; rat, IV, 2 mg/kg
Entries and their measured clearance follow.
Give the number; mL/min/kg is assumed, so skip it.

OC[C@@]12CO[C@@](c3ccc(F)c(Cc4ccc(Cl)cc4)c3)(O1)[C@H](O)[C@@H](O)[C@@H]2O [Example 12A]	15.9

Now, please, on to the next molecule.
Could you share which clearance value was measured for OC[C@@]12CO[C@@](c3ccc(Cl)c(Cc4ccc(OC5COC5)cc4)c3)(O1)[C@H](O)[C@@H](O)[C@@H]2O [Example 14A] ?
31.7

###

- protocolText: PK satellite group of the in-vivo UGE assay (plasma by LC-MS/MS)
- measurementParameters: male, Sprague Dawley; rat plasma, oral gavage, 30 mg/kg
recordedEndpoint: Cmax (ng/mL)
Give the number; ng/mL is assumed, so skip it.

Could you share which Cmax value was measured for CCOc1ccc(Cc2cc([C@]34OC[C@](CO)(O3)[C@@H](O)[C@H](O)[C@H]4O)ccc2Cl)cc1 ?
10500

###

- protocolText: PK satellite group of the in-vivo UGE assay (plasma by LC-MS/MS)
- measurementParameters: male, Sprague Dawley; rat plasma, oral gavage, 1 mg/kg; read-out: Mean PK Parameters (n = 2) tmax
recordedEndpoint: Tmax (h)
Give the number; h is assumed, so skip it.

Could you share which Tmax value was measured for CCOc1ccc(Cc2cc([C@]34OC[C@](CO)(O3)[C@@H](O)[C@H](O)[C@H]4O)ccc2Cl)cc1 ?
1

###

- protocolText: Pharmacokinetic testing in rats (IV or PO)
- Format: in vivo
- measurementParameters: male, Sprague Dawley, plasma; rat, IV, 2 mg/kg
- Experimental: Examples 1A, 2A, 4A, 12A, and 14A were tested in rats to assess pharmacokinetic parameters including maximum concentration (Cmax), area under the plasma concentration time curve (AUC), clearance (CL), steady state volume of distribution (Vss), half life (t1/2), and bioavailability (F). […] Following IV or PO administration, 0.2 mL blood was sampled from the jugular vein at various timepoints (Table 5). […] Samples were vortexed and centrifuged to obtain supernatant which was analyzed by LC-MS/MS. […]
Entries and their measured AUC(0-inf) follow.
Give the number; ng·h/mL is assumed, so skip it.

CCOc1ccc(Cc2cc([C@]34OC[C@](CO)(O3)[C@@H](O)[C@H](O)[C@H]4O)ccc2Cl)cc1	8480
CCOc1ccc(Cc2cc([C@]34OC[C@](CO)(O3)[C@@H](O)[C@H](O)[C@H]4O)ccc2C)cc1	1340
OC[C@@]12CO[C@@](c3ccc(F)c(Cc4ccc(Cl)cc4)c3)(O1)[C@H](O)[C@@H](O)[C@@H]2O [Example 12A]	2200
OC[C@@]12CO[C@@](c3ccc(Cl)c(Cc4ccc(OC5COC5)cc4)c3)(O1)[C@H](O)[C@@H](O)[C@@H]2O [Example 14A]	1060
COc1ccc(Cc2cc([C@]34OC[C@](CO)(O3)[C@@H](O)[C@H](O)[C@H]4O)ccc2C)cc1	947

Now, please, on to the next molecule.
Could you share which AUC(0-inf) value was measured for COc1ccc(Cc2cc([C@]34OC[C@](CO)(O3)[C@@H](O)[C@H](O)[C@H]4O)ccc2Cl)cc1 ?
1410
